Sourced from patent US8937167B2

test system: UTI89 biofilm; assay: UTI89 type 1 dependent biofilm formation (inhibition/prevention) assay on PVC, crystal violet; format: cell-based, uropathogenic E. coli UTI89; conditions: Escherichia coli, read-out: Biofilm Prevention IC50
The entries below are paired with their reported IC50.
The reply should be a number in µM, with the unit left off.

# compound, recorded.result
rows = [
    ("COC(=O)c1cccc(-c2ccc(O[C@H]3O[C@H](CO)[C@@H](O)[C@H](O)[C@@H]3O)c(C)c2)c1", 0.33),
    ("COC(=O)c1cccc(-c2ccc(OC3O[C@@H](CO)[C@@H](O)[C@H](O)[C@H]3O)c(C)c2)c1 (stereo partly shown)", 0.333),
    ("COC(=O)c1cccc(-c2ccc(O[C@H]3O[C@H](CO)[C@@H](O)[C@H](O)[C@@H]3O)c(Cl)c2)c1", 0.26),
    ("COC(=O)c1cccc(-c2ccc(O[C@H]3O[C@H](CO)[C@@H](O)[C@H](O)[C@@H]3O)c(OC)c2)c1", 0.89),
    ("COC(=O)c1sc(-c2ccc(OC3OC(CO)C(O)C(O)C3O)cc2)cc1NC(N)=O (stereo not shown)", 0.181),
]

Lookup: Kindly state the measured IC50 obtained for CNC(=O)c1cccc(-c2ccc(OC3O[C@@H](CO)[C@@H](O)[C@H](O)[C@H]3O)c(Cl)c2)c1 (stereo partly shown) with UTI89 biofilm.
Found: 0.523

Lookup: Next up: CNC(=O)c1cccc(-c2ccc(OC3O[C@@H](CO)[C@@H](O)[C@H](O)[C@H]3O)c(C)c2)c1 (stereo partly shown)
Found: 0.159

Lookup: Next up: "CNC(=O)c1cccc(-c2ccc(O[C@H]3O[C@H](CO)[C@@H](O)[C@H](O)[C@@H]3O)cc2)c1"
Found: 1.35

* * *

biological target: FimH (Escherichia coli)
property.label: HAI Titer EC>90 (µM)
The reply should be a number in µM, with the unit left off.

Lookup: Query (molecule): COc1ccccc1-c1ccc(OC2OC(CO)C(O)C(O)C2O)cc1 (stereo not shown) ; field requested: HAI Titer EC>90
Found: 2.000

Lookup: Next up: OCC1OC(Oc2ccccc2)C(O)C(O)C1O [Phenyl-α-D-mannoside, reference compound]
Found: 30.000

Lookup: Next up: OCC1OC(Oc2ccc(Cl)cc2)C(O)C(O)C1O (stereo not shown)
Found: 32.000

Lookup: Next up: OCc1cccc(-c2ccc(OC3OC(CO)C(O)C(O)C3O)cc2)c1 (stereo not shown)
Found: 3.000

Lookup: Next up: OCC1OC(Oc2ccc(Br)cc2)C(O)C(O)C1O (stereo not shown)
Found: 32.000

Lookup: Next up: OCc1ccc(-c2ccc(OC3OC(CO)C(O)C(O)C3O)cc2)cc1 (stereo not shown)
Found: 6.000

Lookup: Next up: O=C(NCC1O[C@@H](CO)[C@@H](O)[C@H](O)[C@H]1O)c1ccc(Br)cc1 (stereo partly shown)
Found: 16.000

* * *

biological target: FimH lectin domain (Escherichia coli, UniProt P08191); construct: made by biotinylating FimH lectin domain^25 at a 1:1 molar ratio with NHS-PEO4-Biotin; test: biochemical; type: binding, E. coli; settings: Table 20; read-out: Octet Kd
property.label: pKd
Bear in mind: pKd is minus log10 of a mol/L concentration; give just that figure.

Study these solved cases before continuing.
# molecule, pKd
data = [
    ("CC(=O)Nc1cccc(-c2ccc(O[C@H]3O[C@H](CO)[C@@H](O)[C@H](O)[C@@H]3O)cc2)c1", 8.94),
    ("COC(=O)c1cccc(-c2ccc(O[C@H]3O[C@H](CO)[C@@H](O)[C@H](O)[C@@H]3O)cc2)c1 [Compound 1, phenyl mannoside, reference compound]", 10.10),
]

Then there is this molecule:
Lookup: Kindly state the measured pKd obtained for "OC[C@H]1O[C@H](Oc2ccc(-c3cccc(C(F)(F)F)c3)cc2)[C@@H](O)[C@@H](O)[C@@H]1O" with FimH lectin domain (Escherichia coli, UniProt P08191).
Found: 8.81

* * *

The entries below are paired with their reported HAI Titer EC>90.
molecular target: FimH (Escherichia coli)
Could you kindly put the unit after your number?

Study these solved cases before continuing.
# compound, recorded.result
measured = [
    ("COC(=O)c1ccc(-c2cccc(OC3OC(CO)C(O)C(O)C3O)c2)cc1 (centres unmarked)", "6.000 µM"),
    ("CNC(=O)c1cc(C(=O)NC)cc(-c2ccc(OC3OC(CO)C(O)C(O)C3O)cc2)c1 (centres unmarked)", "0.370 µM"),
    ("COC(=O)c1cccc(-c2ccc(NC(=O)C3OC(CO)C(O)C(O)C3O)cc2)c1 (centres unmarked)", "16.000 µM"),
    ("O=C(O)c1cc(C(=O)O)cc(-c2ccc(OC3OC(CO)C(O)C(O)C3O)cc2)c1 (centres unmarked)", "2.000 µM"),
]

Lookup: Query (compound): CNS(=O)(=O)c1cccc(-c2ccc(OC3OC(CO)C(O)C(O)C3O)cc2)c1 (centres unmarked) ; field requested: HAI Titer EC>90
Found: 1.000 µM

Lookup: Next up: O=C(NCCCCOC1OC(CO)C(O)C(O)C1O)c1ccc(-c2c3ccc(=O)cc-3oc3cc(O)ccc23)c(C(=O)O)c1 (centres unmarked) [Compound 1ZFH134B]
Found: 125.000 µM

Lookup: Next up: OCC1OC(Oc2cc(F)c(F)c(F)c2)C(O)C(O)C1O (centres unmarked)
Found: 125.000 µM

Lookup: Next up: O=[N+]([O-])c1ccc(-c2ccc(OC3OC(CO)C(O)C(O)C3O)cc2)cc1 (centres unmarked)
Found: 2.000 µM

* * *

target: FimH lectin domain (Escherichia coli, UniProt P08191); construct: made by biotinylating FimH lectin domain^25 at a 1:1 molar ratio with NHS-PEO4-Biotin; test: biochemical; assay type: binding, E. coli
The entries below are paired with their reported Kd.
The reply should be a number in nM, with the unit left off.

# compound, target.entity, Kd [nM]
data = [
    ("OCC1OC(Oc2ccc(-c3ccccc3)cc2)C(O)C(O)C1O (centres unmarked)", "FimH lectin domain (Escherichia coli, UniProt P08191)", 3),
]

Lookup: Query (compound): "CNC(=O)c1cccc(-c2ccc(O[C@H]3O[C@H](CO)[C@@H](O)[C@H](O)[C@@H]3O)cc2)c1" ; field requested: Kd
Found: 0.1

* * *

Reported HAI Titer EC>90, FimH (Escherichia coli).
The reply should be a number in µM, with the unit left off.

Study these solved cases before continuing.
# compound, unit.of.measurement, HAI Titer EC>90
rows = [
    ("O=C(O)c1cccc(-c2ccc(OC3OC(CO)C(O)C(O)C3O)cc2)c1 (centres unmarked) [Compound 2ZFH22]", "µM", 4.000),
    ("CC(=O)Nc1ccc(OC2OC(CO)C(O)C(O)C2O)cc1 (centres unmarked) [Compound 1ZFH75]", "µM", 8.000),
    ("COC(=O)Cc1cc(OC2OC(CO)C(O)C(O)C2O)ccc1O (centres unmarked) [Compound 1ZFH187]", "µM", 15.000),
]

Lookup: Query (compound): CCCCCCCOC1OC(CO)C(O)C(O)C1O (centres unmarked) [Heptyl-mannoside, reference compound] ; field requested: HAI Titer EC>90
Found: 15.000

Lookup: Next up: COC(=O)c1cccc(-c2ccc(OC3O[C@@H](CO)[C@@H](O)[C@H](O)[C@H]3O)c(C(F)(F)F)c2)c1 (some centres unmarked) [Compound 4ZFH222]
Found: 0.032

Lookup: Next up: Cc1ccc(OC2OC(CO)C(O)C(O)C2O)cc1 (centres unmarked) [Compound 2ZFH175]
Found: 8.000

Lookup: Next up: NCCNC(=O)c1cccc(-c2ccc(OC3OC(CO)C(O)C(O)C3O)cc2)c1 (centres unmarked) [Compound 3ZFH280]
Found: 3.000

Lookup: Next up: NC(=O)c1ccccc1-c1ccc(OC2OC(CO)C(O)C(O)C2O)cc1 (centres unmarked) [Compound 3ZFH66]
Found: 6.000

* * *

The entries below are paired with their reported HAI Titer EC>90.
biological target: FimH (Escherichia coli, UniProt Q1R2J4)
The reply should be a number in µM, with the unit left off.

# compound, HAI Titer EC>90, µM
data = [
    ("CNC(=O)c1cc(C(=O)NC)cc(-c2ccc(OC3O[C@@H](CO)[C@@H](O)[C@H](O)[C@H]3O)c(C)c2)c1 (stereo partly shown)", 0.016),
]

Lookup: Query (compound): OCC1OC(Oc2ccc(-c3cccc(O)c3)cc2)C(O)C(O)C1O (stereo not shown) ; field requested: HAI Titer EC>90
Found: 4.000

Lookup: Next up: COC(=O)c1cc(-c2ccc(OC3OC(CO)C(O)C(O)C3O)cc2)ccn1 (stereo not shown)
Found: 0.500

Lookup: Next up: CNC(=O)c1cncc(-c2ccc(OC3OC(CO)C(O)C(O)C3O)cc2)c1 (stereo not shown)
Found: 0.500
